system: linear incision wound sites; test: Intradermal injection along linear incision wounds, histological evaluation; assay type: in vivo, minipigs; conditions: microscopic grade over 29 days
Outcome Measure: subcutis fibroplasia

>  <Input Smiles>
COC(=O)c1ccc2c(c1)NC(=O)/C2=C(\Nc1ccc(N(C)C(=O)CN2CCN(C)CC2)cc1)c1ccccc1

>  <Measurement>
none to moderate

$$$$
>  <Input Smiles>
CNC(=O)c1ccccc1Sc1ccc2c(/C=C/c3ccccn3)n[nH]c2c1

>  <Measurement>
none to moderate

$$$$

----------
# solubility listing for each entry below
test: Aqueous solubility of multi-target inhibitors; type: physicochemical; conditions: aqueous (not further specified)

>  <Molecule>
CCN(CC)CCNC(=O)c1c(C)[nH]c(/C=C2\C(=O)Nc3ccc(F)cc32)c1C [Sunitinib]

>  <solubility (µg/mL)>
7

$$$$
>  <Molecule>
COC(=O)c1ccc2c(c1)NC(=O)/C2=C(\Nc1ccc(N(C)C(=O)CN2CCN(C)CC2)cc1)c1ccccc1 [Nintedanib]

>  <solubility (µg/mL)>
9

$$$$
>  <Molecule>
CNC(=O)c1ccccc1Sc1ccc2c(/C=C/c3ccccn3)n[nH]c2c1 [Axitinib]

>  <solubility (µg/mL)>
2

$$$$
>  <Molecule>
COC(=O)N(C)c1c(N)nc(-c2nn(Cc3ccccc3F)c3ncccc23)nc1N [Riociguat]

>  <solubility (µg/mL)>
8

$$$$
>  <Molecule>
COc1cc2nccc(Oc3ccc(NC(=O)NC4CC4)c(Cl)c3)c2cc1C(N)=O [Lenvatinib]

>  <solubility (µg/mL)>
4

$$$$
>  <Molecule>
Cc1ccc(=O)n(-c2ccccc2)c1 [Pirfenidone]

>  <solubility (µg/mL)>
3000

$$$$
